target: CSR3 (RNase III of SPCSV) (Sweet potato chlorotic stunt virus, UniProt Q8JJW8); assay: Kinetic-based FRET dose-response assay (IC50, DSS); type: biochemical; details: repeat FIMM 2 (FIMM library compounds), 1.25 nM to 50 μM; unit inferred, numbers match nM; read-out: IC50 FIMM 2
Sequence (Q8JJW8 entry or part of it): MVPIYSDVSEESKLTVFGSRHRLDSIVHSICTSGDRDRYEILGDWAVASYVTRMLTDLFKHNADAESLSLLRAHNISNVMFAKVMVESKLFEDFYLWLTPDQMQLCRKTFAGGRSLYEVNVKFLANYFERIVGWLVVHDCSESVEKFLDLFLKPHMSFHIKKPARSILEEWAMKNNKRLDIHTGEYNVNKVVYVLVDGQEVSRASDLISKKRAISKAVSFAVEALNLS
MEASURED ENDPOINT: IC50

Item: Cc1ccc(C)c(C(=O)CSc2nnc[nH]2)c1 | IC50: 1120 nM

CN1CCc2cccc3c2[C@H]1Cc1ccc(O)c(O)c1-3 [FIMM000096, reference compound] has a reported IC50 of 2880 nM

Reported IC50 ( CCn1c(S)nnc1CCNC(=O)c1cccs1 ) = 3810 nM

// field: IC50; key: CN1C(=O)C(=CNc2ccc(F)cc2)C(=O)N(C)C1=O ; value = 21000 nM

# IC50 of COc1cc(C=C2C(=O)NC(=S)NC2=O)ccc1OCc1ccccc1[N+](=O)[O-] = 7240 nM

Field IC50 (entry O=C1c2c(O)ccc(O)c2C(=O)c2c(NCCNCCO)ccc(NCCNCCO)c21 ) reads 1640 nM

get_value(item= O=S(=O)(O)c1cccc2cc(O)ccc12 , readout=IC50) returns 295 nM

====

target: CSR3 (RNase III of SPCSV) (Sweet potato chlorotic stunt virus); experiment: Kinetic-based FRET dose-response assay (IC50, DSS); format: biochemical; conditions: drug sensitivity score, repeat FIMM 1
Record form. Attribute: DSS FIMM1. Fill in for each entry.
Keep it simple and answer with nothing but the number.

Entry under test: COc1cc(C=C2C(=O)NC(=S)NC2=O)ccc1OCc1ccccc1[N+](=O)[O-] . Its DSS FIMM1 was 11.2

Briefly, DSS FIMM1 measured for CCn1c(S)nnc1CCNC(=O)c1cccs1 : 11.7

Note to self: DSS FIMM1 recorded for CN1CCc2cccc3c2[C@H]1Cc1ccc(O)c(O)c1-3 [FIMM000096, reference compound] was 12.7

Consider Cc1ccc(C2Nc3ccc(C(=O)O)cc3C3C=CCC32)cc1 (stereo not drawn) . Its measured DSS FIMM1 is 15.9

Value of DSS FIMM1 reported for the compound O=S(=O)(O)c1cccc2cc(O)ccc12 is 18.3

Reported DSS FIMM1 for O=C(O)c1ccc2c(c1)C1C=CCC1C(c1ccc(F)cc1)N2 (stereo not drawn) was 12.4

Reported DSS FIMM1 ( O=C(O)c1ccc(C2Nc3c(Br)cccc3C3C=CCC32)cc1 (stereo not drawn) ) = 13.8

Sure, the documented DSS FIMM1 for O=C1c2c(O)ccc(O)c2C(=O)c2c(NCCNCCO)ccc(NCCNCCO)c21 is 14.9

What the record says about CC(C)(C)C1CCc2c(sc(NC(=O)C3CC=CCC3C(=O)O)c2C(N)=O)C1 (stereo not drawn) : DSS FIMM1 is 0

Note to self: DSS FIMM1 recorded for O=C(O)c1ccc2c(c1)C1C=CCC1C(c1ccccc1)N2 (stereo not drawn) was 12.5

Query Cc1ccc(C)c(C(=O)CSc2nnc[nH]2)c1 yields DSS FIMM1 of 19.2

Summary for this compound, CN1C(=O)C(=CNc2ccc(F)cc2)C(=O)N(C)C1=O : DSS FIMM1 is 0

====

Molecular target: CSR3 (RNase III of SPCSV) (Sweet potato chlorotic stunt virus)
Test: Kinetic-based FRET dose-response assay (IC50, DSS)
Assay type: biochemical
Details: drug sensitivity score, repeat FIMM 2
Experimental: A dose-response assay with six concentrations (1.25 nM to 50 μM) was carried out in three independent experiments, which included two tests with the 112 selected FIMM compounds (i.e., compounds prepared by the HTB-FIMM) and one test using the newly ordered commercial compounds (99 of the 112 compounds, i.e., compounds prepared by a second supplier). A dose-response curve was generated for each compound based on PI values as a function of the concentration. […]
So I've got a bunch of compounds here, and I need their DSS FIMM 2 values.

response.value for COc1cc(C=C2C(=O)NC(=S)NC2=O)ccc1OCc1ccccc1[N+](=O)[O-] [FIMM101864] (field: DSS FIMM 2) = 8

Briefly, DSS FIMM 2 measured for Cc1ccc(C2Nc3ccc(C(=O)O)cc3C3C=CCC32)cc1 (stereo not drawn) [FIMM031755] : 16.2

The reported DSS FIMM 2 of the compound O=S(=O)(O)c1cccc2cc(O)ccc12 [FIMM072577] was 22.1

Form field DSS FIMM 2, entry CN1CCc2cccc3c2[C@H]1Cc1ccc(O)c(O)c1-3 [FIMM000096, reference compound] : 12.8

Field DSS FIMM 2 (entry CN1C(=O)C(=CNc2ccc(F)cc2)C(=O)N(C)C1=O [FIMM059523] ) reads 2.3

Sure, the documented DSS FIMM 2 for O=C1c2c(O)ccc(O)c2C(=O)c2c(NCCNCCO)ccc(NCCNCCO)c21 [FIMM000490] is 15.5

// DSS FIMM 2 value for Cc1ccc(C)c(C(=O)CSc2nnc[nH]2)c1 [FIMM027745] : 16.7

Sure, the documented DSS FIMM 2 for O=C(O)c1ccc(C2Nc3c(Br)cccc3C3C=CCC32)cc1 (stereo not drawn) [FIMM022230] is 14.3

O=C(O)c1ccc2c(c1)C1C=CCC1C(c1ccc(F)cc1)N2 (stereo not drawn) [FIMM051696] has a reported DSS FIMM 2 of 10.8

====

Give DSS FIMM 2 for every item shown.
biological target: CSR3 (RNase III of SPCSV) (Sweet potato chlorotic stunt virus); test: Kinetic-based FRET dose-response assay (IC50, DSS); format: biochemical; conditions: drug sensitivity score, repeat FIMM 2
Answer with the value's number alone.

DSS FIMM 2 measured on CCn1c(S)nnc1CCNC(=O)c1cccs1 = 10.2

# DSS FIMM 2 (molecule: O=C(O)c1ccc2c(c1)C1C=CCC1C(c1ccccc1)N2 (stereo not drawn) ) is 12.1

Lab note: measured DSS FIMM 2 of CC(C)(C)C1CCc2c(sc(NC(=O)C3CC=CCC3C(=O)O)c2C(N)=O)C1 (stereo not drawn) was 2.1

====

biological target: CSR3 (RNase III of SPCSV) (Sweet potato chlorotic stunt virus, UniProt Q8JJW8); assay: Kinetic-based FRET dose-response assay (IC50, DSS); type: biochemical; details: read-out: IC50 FIMM 2; repeat FIMM 2 (FIMM library compounds), 1.25 nM to 50 μM; unit inferred, numbers match nM
What IC50 was measured for each of the following?
Express the reported value numerically, then name its unit.

O=C(O)c1ccc2c(c1)C1C=CCC1C(c1ccccc1)N2 (stereo not shown) on CSR3 (RNase III of SPCSV) (Sweet potato chlorotic stunt virus, UniProt Q8JJW8) gives IC50 = 2930 nM

# IC50 measured on CSR3 (RNase III of SPCSV) (Sweet potato chlorotic stunt virus, UniProt Q8JJW8) for item O=C(O)c1ccc(C2Nc3c(Br)cccc3C3C=CCC32)cc1 (stereo not shown) = 1550 nM

Readout IC50 for O=C(O)c1ccc2c(c1)C1C=CCC1C(c1ccc(F)cc1)N2 (stereo not shown) , test system CSR3 (RNase III of SPCSV) (Sweet potato chlorotic stunt virus, UniProt Q8JJW8), was 4000 nM

Short answer on CSR3 (RNase III of SPCSV) (Sweet potato chlorotic stunt virus, UniProt Q8JJW8) for Cc1ccc(C2Nc3ccc(C(=O)O)cc3C3C=CCC32)cc1 (stereo not shown) , IC50: 1240 nM

====

target: CSR3 (RNase III of SPCSV) (Sweet potato chlorotic stunt virus); test: Kinetic-based FRET dose-response assay (IC50, DSS); type: biochemical; settings: kinetic-based HTS, Fig 5A summary
pIC50: −log10 of the molar value.
MEASURED ENDPOINT: pIC50

# pIC50 of O=C(O)c1ccc(C2Nc3c(Br)cccc3C3C=CCC32)cc1 (centres unmarked) [FIMM022230] = ~5.73

Please fill in: pIC50 reported for CN1CCc2cccc3c2[C@H]1Cc1ccc(O)c(O)c1-3 [FIMM000096, reference compound] = ~5.53

Measured pIC50 of Cc1ccc(C2Nc3ccc(C(=O)O)cc3C3C=CCC32)cc1 (centres unmarked) [FIMM031755] : ~5.90

pIC50 recorded for this compound, O=C(O)c1ccc2c(c1)C1C=CCC1C(c1ccccc1)N2 (centres unmarked) [FIMM005536] , is ~5.56

Value of pIC50 reported for the compound O=C(O)c1ccc2c(c1)C1C=CCC1C(c1ccc(F)cc1)N2 (centres unmarked) [FIMM051696] is ~5.55

====

target: CSR3 (RNase III of SPCSV) (Sweet potato chlorotic stunt virus); experiment: Kinetic-based FRET dose-response assay (IC50, DSS); assay type: biochemical; conditions: repeat Comm 1 (commercial compounds), 1.25 nM to 50 μM; unit inferred, numbers match nM; read-out: IC50 Comm 1
Please go through the items and note down their log10(IC50).
Parameter value (number): base-10 log of IC50 in nM.

Query COc1cc(C=C2C(=O)NC(=S)NC2=O)ccc1OCc1ccccc1[N+](=O)[O-] yields log10(IC50) of 3.23

Measured log10(IC50), O=S(=O)(O)c1cccc2cc(O)ccc12 : 2.59

The compound listed as O=C1c2c(O)ccc(O)c2C(=O)c2c(NCCNCCO)ccc(NCCNCCO)c21 has a reported log10(IC50) of 3.08

In plain terms, CC(C)(C)C1CCc2c(sc(NC(=O)C3CC=CCC3C(=O)O)c2C(N)=O)C1 (stereo not drawn) has a documented log10(IC50) of 3.56

Entry CCn1c(S)nnc1CCNC(=O)c1cccs1 , log10(IC50) reported as 4.06

Short answer for Cc1ccc(C)c(C(=O)CSc2nnc[nH]2)c1 : log10(IC50) was 4.17

Where do the numbers come from? From paper PMC8315922.
